Data provenance: ChEMBL document CHEMBL1201862

System: SF-539
Assay Comment: NCI tumour cell line growth inhibition, 48 h
Active and inactive are the calls of the source. Cut-off read from the data, not from the text of the source: active = GI50 up to about 1.1 µM and inactive = higher.
Possible outcomes: 1 for active, 0 for inactive

Molecule | Target Entity | Group
OC1(c2cc3ccccc3s2)CCCCC1 | SF-539 | 0
Cc1cc(N(CCC#N)CCC#N)ccc1/C=C1N=C(/C=C\c2ccccc2)N(NC(=O)CC(=O)Nc2ccccc2Cl)C\1=O | SF-539 | 0
C/C(=N\NC(N)=S)c1ccccn1.OB(O)c1ccccc1 | SF-539 | 0
C=C/C(C)=C\CC1[C@](C)(O)CC[C@H]2C(C)(C)C(=O)CC[C@]12C (stereo not given in full) | SF-539 | 0
N#CC1C2CCC3(CC2CCN1C(=O)c1ccccc1)OCCO3 (stereo not given) | SF-539 | 0
N#CCCc1nc2ccc(Br)cc2c(=O)n1CCO | SF-539 | 0
N#CC(C(=O)/C(=N\Nc1nc(S)nn1N)C(C#N)c1ccc(Cl)cc1)c1ccc(Cl)cc1 (stereo not given) | SF-539 | 0
O=C1OC(CCCN2CCCCC2)(c2ccccc2)CC12CCCC2 (stereo not given) | SF-539 | 0
Cc1cc(C)nc(NS(=O)(=O)c2ccc(NNc3c4ccccc4nc4c(C(=O)Nc5ccc(S(=O)(=O)Nc6cc(C)on6)cc5)cccc34)cc2)n1 | SF-539 | 0
C=CCc1c(Cl)nc(Cl)nc1Cl | SF-539 | 1
CC(C)=NOC(=O)CNC(=O)C(Cc1ccccc1)NC(=O)C(C)NC(=O)OC(C)(C)C (stereo not given) | SF-539 | 0
CCC1C(c2cccc(OC)c2O)c2cc3c(cc2OC1N1CCCC1)OCO3 (stereo not given) | SF-539 | 0
O=C(NCCCCCCNC(=O)c1cc(-c2ccccc2)nc2ccccc12)c1cc(-c2ccccc2)nc2ccccc12 | SF-539 | 0
O=C(CCl)Nc1cc(Cl)c(Cl)cc1Cl | SF-539 | 0
N#Cc1c(O)c2ccccc2[nH]c1=O | SF-539 | 0
